organism: Felis catus; test: Agonist activity at angiotensin AT2 receptor in isolated cat adrenal medulla assessed as secretory activity relative to angiotensin 2; format: tissue-based
Non-standard residues stand in square brackets, D forms with d. Residues, ends and D or L forms follow the SMILES beside them. Sar = CNCC(=O)O
PROPERTY_NAME: Activity (%)
Answers are plain numbers, in %.

Give me Activity for each of these molecules, listed below.
1. CC[C@H](C)[C@H](NC(=O)[C@H](Cc1ccc(O)cc1)NC(=O)[C@@H](NC(=O)[C@H](CCCNC(=N)N)NC(=O)CNC)C(C)C)C(=O)N[C@@H](Cc1cnc[nH]1)C(=O)N1CCC[C@H]1C(=O)N[C@@H](CO)C(=O)O (H-[Sar]RVYIHPS-OH)
2. CC[C@H](C)[C@H](NC(=O)[C@@H]1CCCN1C(=O)[C@H](Cc1cnc[nH]1)NC(=O)[C@@H](NC(=O)[C@H](Cc1ccc(O)cc1)N(C)C(=O)[C@@H](NC(=O)[C@H](CCCNC(=N)N)NC(=O)CNC)C(C)C)[C@@H](C)CC)C(=O)O
3. CC[C@H](C)[C@H](NC(=O)[C@H](Cc1ccc(O)cc1)NC(=O)[C@@H](NC(=O)[C@H](CCCNC(=N)N)NC(=O)CNC)C(C)C)C(=O)N[C@@H](Cc1cnc[nH]1)C(=O)N1CCC[C@H]1C(=O)N(C)[C@H](C(=O)O)[C@@H](C)CC

Response:
1. 0.05
2. 0.11
3. 0.1
